Test: chemical genetic growth profiling, strain panel (AID 1159580);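 note: tested at 20 µM; growth read once vehicle control cultures reached saturation at 30 °C; 1 = growth at the plate median or of vehicle wells; lower values mean less growth of the strain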
Conditions: S. cerevisiae deletion strains, growth OD, locus YDL101C, strain DUN1, hits give low values
Hit rate of the full screen: of about 5,500 compounds, about 2,000 (36%) were called active. Another 18% or so got no clear call; they are omitted. The list shows a part of the results.
Measure Name: normalized growth

{"columns": ["Compound Structure String", "Observed"],
 "data": [
  ["CC(C)OC(=O)Nc1cccc(Cl)c1", 0.986],
  ["COC(=O)c1cc(OC)c(OC)cc1NC(=O)Nc1cc(Cl)cc(Cl)c1", 1.02],
  ["COC(=S)Nc1cc(Cl)cc(Cl)c1", 0.949],
  ["CC(C)OC(=O)Nc1cc(Cl)cc(Cl)c1", 0.972],
  ["O=C(/C=C/c1ccc(Cl)cc1)Nc1cccc(Cl)c1", 0.973],
  ["NNC(=O)c1oc2nc(-c3ccccc3)cc(-c3ccccc3)c2c1N", 0.981]
]}
